Hey, just so you know, these numbers are from PubChem BioAssay (NCI).

System: ACHN renal
Assay: NCI tumour cell line growth inhibition, 48 h
measurement.type: TGI (µM)

INSERT INTO measurements (compound, measurement_type, comparison_symbol, value) VALUES
  ('COc1cc(OC)c(/C=C\c2cc(/C=C/c3c(OC)cc(OC)cc3OC)c3ccccc3[n+]2C)c(OC)c1', 'TGI', '=', 25.8),
  ('COC(=O)C(CC(C)C)NC(=O)NC12CC3CC(CC(F)(C3)C1)C2 (centres undefined)', 'TGI', '>', 100),
  ('O=c1ccn(C2OC(CO)C(O)C2[Se]c2ccccc2)c(=O)[nH]1 (centres undefined)', 'TGI', '>', 100),
  ('COc1ccc(C(=O)COC(=O)[C@H](C[Se][Se]C[C@H](NC(=O)c2ccc(Br)cc2F)C(=O)OCC(=O)c2ccc(OC)cc2)NC(=O)c2ccc(Br)cc2F)cc1', 'TGI', '=', 2.49),
  ('Nc1nc(OCc2cc(Br)cs2)c2[nH]cnc2n1', 'TGI', '=', 52),
  ('CC(/C(=N\Nc1ccccc1)c1ccc(O)cc1)C1C(=O)Oc2ccccc21 (centres undefined)', 'TGI', '>', 100),
  ('O=C(c1ccccc1)c1ccc(Oc2ccc([N+](=O)[O-])cc2[N+](=O)[O-])cc1', 'TGI', '=', 13.6),
  ('OC1CCOc2ccccc21 (centres undefined)', 'TGI', '>', 100),
  ('Cc1ccc2ncnc(N(CC(C)C)CC(C)C)c2c1', 'TGI', '=', 31.5);

---

System: CAKI-1 renal
Test: NCI tumour cell line growth inhibition, 48 h
measurement.type: GI50

INSERT INTO assay_data (compound, measurement_type, value) VALUES
  ('COc1ccc2c(CN3CCC(C(=O)O)CC3)cc3cc4c(cc3c2c1)OCO4', 'GI50', '2.44 µM'),
  ('Cl.Fc1c[c-]c(-c2ccccn2)c(F)c1.[Pt].c1ccc(P(c2ccccc2)C([PH+](c2ccccc2)c2ccccc2)[PH+](c2ccccc2)c2ccccc2)cc1', 'GI50', '2.19 µM'),
  ('CC(C)(C)C(=O)OCOP(=O)(OCOC(=O)C(C)(C)C)C1CC(O)N(O)C1=O (stereo unspecified)', 'GI50', '4.87 µM'),
  ('CC1(C)CCC2=C(O1)c1ccccc1C(=O)C2=O', 'GI50', '1.74 µM'),
  ('CN(Cc1cc(Br)cc(Br)c1O)Cc1cc(Br)cc(Br)c1O', 'GI50', '0.612 µM'),
  ('Nc1nc(OCc2cc(Br)cs2)c2[nH]cnc2n1', 'GI50', '9.94 µM');

---

Test system: SW-620 colon
Experiment: NCI tumour cell line growth inhibition, 48 h; in the data active means GI50 below about 0.43 µM; inactive means the rest
Possible outcomes: TRUE (active), FALSE (inactive)

INSERT INTO measurements (compound, assigned_class) VALUES
  ('O=C1c2nsnc2C(=O)c2c(F)c(F)c(F)c(F)c21', 'TRUE'),
  ('O=C(c1ccccc1)c1ccc(Oc2ccc([N+](=O)[O-])cc2[N+](=O)[O-])cc1', 'FALSE'),
  ('Cn1cc(C2=C(c3cn(C)c4c([N+](=O)[O-])cccc34)C(=O)NC2=O)c2ccccc21', 'FALSE'),
  ('Oc1ccc(O)c(-c2cn3ccsc3n2)c1', 'FALSE'),
  ('COc1cc(-c2nc3ccccc3s2)ccc1NC(=O)COc1ccc(Cl)cc1', 'FALSE'),
  ('Clc1cccc(Cl)c1C1CSc2ccccc2N=C1c1ccccc1 (stereo unspecified)', 'FALSE');

---

Test system: M14 melanoma
Experiment: NCI tumour cell line growth inhibition, 48 h
measurement.type: TGI

INSERT INTO results (compound, value) VALUES
  ('CC(NC(=O)C(N)CC(=O)O)NC(=O)C1CCC1 (stereo not given)', '> 100 µM'),
  ('CC(/C(=N\Nc1ccccc1)c1ccc(O)cc1)C1C(=O)Oc2ccccc21 (stereo not given)', '> 100 µM'),
  ('CC(NC(=O)c1ccccc1)NC(=O)C(C)C(=O)Nc1ccccc1 (stereo not given)', '> 100 µM'),
  ('O=c1oc2ccccc2c(O)c1/C=N/C(=S)NCCc1ccccc1', '> 100 µM'),
  ('COc1ccc2c(c1)[nH]c(=O)c1c3cc(OC)ccc3cn21', '1.34 µM');

---

System: SNB-75 CNS
Assay: NCI tumour cell line growth inhibition, 48 h
measurement.type: TGI (µM)

INSERT INTO results (chemical_smiles, comparison_symbol, value) VALUES
  ('N#C/C(C(=O)Nc1ccc(Cl)cc1)=C(/N)N1CCCCC1', '=', 72.3),
  ('O=C(CN(/C=C/C(=O)C(F)(F)F)c1ccc(Cl)cc1)c1ccccc1', '=', 41.1),
  ('Nc1cc(N2CCCC2)nc(=O)n1-c1ccccc1', '>', 100),
  ('Cc1ccc(-c2cc3c(SCC(=O)Nc4cc(C(F)(F)F)ccc4Cl)nccn3n2)cc1', '>', 100);

---

Tested on: RXF 393 renal
Test: NCI tumour cell line growth inhibition, 48 h
measurement.type: TGI

INSERT INTO measurements (compound, measurement_type, value) VALUES
  ('O=C(O)c1ccc(NC(NC(=O)C(C(F)(F)F)C(F)(F)F)(C(F)(F)F)C(F)(F)F)cc1', 'TGI', '> 100 µM'),
  ('CCCCCCCCCCCCCC(=O)OCC1OC(n2cc(F)c(=O)[nH]c2=O)C(NC(=O)OCc2ccccc2)C(OC(=O)CCCCCCCCCCCCC)C1O (stereo not given)', 'TGI', '> 100 µM'),
  ('COc1ccc(C(=O)c2cc(OC)c(OC)c(OC)c2)cc1/C=C/C(=O)c1ccc(OC)c(OC)c1', 'TGI', '> 100 µM'),
  ('COC1=CCC=C(C[C@@H]2NCCc3cc(OC)c(OC)cc32)C1', 'TGI', '> 100 µM'),
  ('CS(=O)(=O)Nc1ccc(-c2cc(-c3ccccc3)cc(C(N)=O)c2N)cc1', 'TGI', '> 25 µM');

---

Measured GI50 of individual entries
Tested on: OVCAR-5 ovarian
Assay: NCI tumour cell line growth inhibition, 48 h
measurement.type: GI50

INSERT INTO measurements (compound, system_tested, value) VALUES
  ('COc1ccc(C(SCC(N)C(=O)O)(c2ccccc2)c2ccccc2)cc1 (stereo not given)', 'OVCAR-5 ovarian', '4.82 µM'),
  ('CN(Cc1cc(Br)cc(Br)c1O)Cc1cc(Br)cc(Br)c1O', 'OVCAR-5 ovarian', '6.13 µM'),
  ('COc1cc(-c2nc3ccccc3s2)ccc1NC(=O)COc1ccc(Cl)cc1', 'OVCAR-5 ovarian', '13.4 µM'),
  ('CCCCCCCCCCCCC[C@H](O)C[C@H](O)[C@H](C)N', 'OVCAR-5 ovarian', '1.95 µM'),
  ('Clc1ccc2c(c1)N(CCCN1CCCC1)c1ccccc1S2', 'OVCAR-5 ovarian', '12.7 µM');

---

Measured TGI of individual entries
Test system: LOX IMVI melanoma
Experiment: NCI tumour cell line growth inhibition, 48 h
measurement.type: TGI

INSERT INTO assay_data (compound, system_tested, value) VALUES
  ('O=C(c1ccccc1)c1ccc(Oc2ccc([N+](=O)[O-])cc2[N+](=O)[O-])cc1', 'LOX IMVI melanoma', '15.1 µM'),
  ('O=P1(Oc2ccccc2)N(CCCl)CCN1c1ccccc1 (stereo unspecified)', 'LOX IMVI melanoma', '> 100 µM'),
  ('O=S(=O)(O)c1ccc(N=Nc2c(O)ccc3cc(Br)ccc23)cc1', 'LOX IMVI melanoma', '> 100 µM'),
  ('CCCCC(Sc1cc(Cl)c(C)cc1S(=O)(=O)Nc1n[nH]c(N)n1)C(=O)OC (stereo unspecified)', 'LOX IMVI melanoma', '> 10 µM'),
  ('Cc1nc2c(=O)n(-c3ccccc3)c3ccccc3c2o1', 'LOX IMVI melanoma', '> 100 µM'),
  ('COc1ccc(C(SCC(N)C(=O)O)(c2ccccc2)c2ccccc2)cc1 (stereo unspecified)', 'LOX IMVI melanoma', '25.7 µM'),
  ('OC1CCOc2ccccc21 (stereo unspecified)', 'LOX IMVI melanoma', '> 100 µM'),
  ('COc1cc2nc(SCC(=O)Nc3cc(OC)c(OC)c(OC)c3)n(Cc3ccccc3)c(=O)c2cc1OC', 'LOX IMVI melanoma', '> 100 µM'),
  ('OCC(O)C(O)C(O)c1nn(-c2ccc(Cl)cc2)c2nc3cc(Cl)c(Cl)cc3nc12 (stereo unspecified)', 'LOX IMVI melanoma', '> 100 µM'),
  ('c1cc2[nH]ncc2cc1-c1nc2ccc3[nH]ncc3c2c2c1CCCC2', 'LOX IMVI melanoma', '4.54 µM'),
  ('CC1C[C@H](C)CC(C(O)CC2CC(=O)N(Cc3ccccc3)C(=O)C2)C1O (stereo partly specified)', 'LOX IMVI melanoma', '> 100 µM');
